Below, each of the compounds is paired with its reported Activity value.
Test system: HOP-62
Test: Cytotoxicity against human HOP62 cells assessed as cell growth at 10 uM
Assay type: cell-based
Conditions: hop-62, 10 µM

>  <compound>
COC(=O)c1cc(C(=O)OC)c2c(Cl)cc(NC(C)=O)cc2n1

>  <target.of.assay>
HOP-62

>  <unit.label>
%

>  <Activity>
112.21

$$$$
>  <compound>
COC(=O)c1cc(C(=O)OC)c2c(Cl)cc(N(C)C)cc2n1

>  <target.of.assay>
HOP-62

>  <unit.label>
%

>  <Activity>
114.23

$$$$
>  <compound>
COC(=O)c1cc(C(=O)OC)c2c(Cl)cc(N)c(Cl)c2n1

>  <target.of.assay>
HOP-62

>  <unit.label>
%

>  <Activity>
104.53

$$$$
>  <compound>
CN1C(=O)c2cc(C(N)=O)nc3c(N)c(Cl)c(N)c1c23 [AMMOSAMIDE B]

>  <target.of.assay>
HOP-62

>  <unit.label>
%

>  <Activity>
96.95

$$$$
>  <compound>
COC(=O)c1cc(C(N)=O)nc2cc(N)cc(Cl)c12

>  <target.of.assay>
HOP-62

>  <unit.label>
%

>  <Activity>
109.87

$$$$

---

Target: Ribosyldihydronicotinamide dehydrogenase [quinone] (Homo sapiens) (UniProt P16083)
Sequence (whole entry): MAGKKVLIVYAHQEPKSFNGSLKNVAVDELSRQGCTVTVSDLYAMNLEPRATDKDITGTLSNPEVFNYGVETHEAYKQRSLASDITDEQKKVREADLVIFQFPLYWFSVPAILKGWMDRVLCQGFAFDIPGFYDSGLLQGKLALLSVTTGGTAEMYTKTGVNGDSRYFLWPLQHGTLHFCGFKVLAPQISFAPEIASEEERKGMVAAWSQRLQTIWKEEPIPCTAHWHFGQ
Assay: Inhibition of human quinone reductase 2 using NMeH as substrate by MTT assay relative to control
Binary call on Imax: label 1 from 90% upward, label 0 beneath that.

>  <structure.smiles.string>
COC(=O)c1cc(C(N)=O)nc2cc(NC(C)=O)cc(Cl)c12

>  <category>
label 1

$$$$
>  <structure.smiles.string>
CN1C(=O)c2cc(C(=O)NCc3ccccc3)nc3c(Cl)cc(Cl)c1c23

>  <category>
label 0

$$$$
>  <structure.smiles.string>
CN1C(=O)c2cc(C(N)=O)nc3c(Cl)cc(Cl)c1c23

>  <category>
label 0

$$$$
>  <structure.smiles.string>
COC(=O)c1cc(C(N)=O)nc2cc(N)cc(Cl)c12

>  <category>
label 0

$$$$
>  <structure.smiles.string>
COC(=O)c1cc(C(=O)OC)c2c(Cl)c(N)c(N)cc2n1

>  <category>
label 0

$$$$
>  <structure.smiles.string>
COC(=O)c1cc(C(=O)OC)c2c(N)c(Cl)cc(Cl)c2n1

>  <category>
label 0

$$$$
>  <structure.smiles.string>
NC(=O)c1cc(C(N)=O)c2cc(I)c(N)cc2n1

>  <category>
label 0

$$$$
>  <structure.smiles.string>
CN(C)C(=O)c1cc2c3c(c(Cl)cc(Cl)c3n1)N(C)C2=O

>  <category>
label 0

$$$$
>  <structure.smiles.string>
CNc1c(Cl)c(N)c2c3c(cc(C(N)=O)nc13)C(=O)N2C

>  <category>
label 1

$$$$
>  <structure.smiles.string>
COC(=O)c1cc(C(N)=O)nc2cc(N)c(I)cc12

>  <category>
label 0

$$$$
>  <structure.smiles.string>
COC(=O)c1cc(C(N)=O)nc2cc(N(C)C)cc(Cl)c12

>  <category>
label 0

$$$$
